procedure_text: qHTS of Nrf2 Activators: Hit Validation in Primary Assay; note: nearly all actives have a fitted effect of over 70% in size; note: potency is the fitted concentration of half-maximal effect; for activation: 0% is about no effect
cond: Nrf2/ARE reporter cell assay; activation; series mostly up to 46.1 µM
Procedure: Many diseases have some form of oxidative stress injury and ties to inflammation, causing a host of problems for the patient. The antioxidant response element (ARE) plays an important role in alleviating the harmful effects of oxidative stress. […] Quantification of ARE activation after compound treatment was measured by the Steady-Glo Luciferase (R) assay system (Promega) in AREc32_fluc stable cells. […] The plates were measured on a ViewLux plate reader (PerkinElmer) with clear filter.
The whole screen tested about 1,100 compounds, of which about 860 (78%) were called active. Another 19% or so got no clear call; they are omitted. So high a share suggests a set chosen from earlier hits. The list shows a part of the results.
reported_property: Potency

[ask] For the compound `COCCN(C(=O)COC(=O)/C=C/c1ccccc1Cl)c1c(N)n(Cc2ccccc2)c(=O)[nH]c1=O` , what Potency is on record?
[reply] 11.6 µM (active)

[ask] For the compound `CN1CCN(CCCNC(=O)c2cc3c(=O)n(C)c4ccccc4c3s2)CC1` , what Potency is on record?
[reply] 8.2 µM (active)

[ask] For the compound `O=C(Nc1ccccn1)c1csc2c1CCCC2` , what Potency is on record?
[reply] 5.8 µM (active)

[ask] For the compound `O=C(/C=C/c1ccccc1Cl)Nn1cnc2ccccc2c1=O` , what Potency is on record?
[reply] 2.91 µM (active)

[ask] For the compound `O=C1C(=Cc2cccc(Cl)c2)Cc2ccccc21` , what Potency is on record?
[reply] 4.61 µM (active)

[ask] For the compound `Cc1ccc(S(=O)(=O)c2nc(S(C)(=O)=O)sc2N2CCN(C)CC2)cc1` , what Potency is on record?
[reply] 5.17 µM (active)

[ask] For the compound `O=C(COCc1cc(-c2ccc(F)cc2)on1)Nc1cc(Cl)ccc1O` , what Potency is on record?
[reply] 8.2 µM (active)

[ask] For the compound `O=C(Oc1ccccc1/C=C\C(=O)c1cc2ccccc2o1)c1ccccc1` , what Potency is on record?
[reply] 4.61 µM (active)

[ask] For the compound `O=C(COCc1cc(-c2cccs2)on1)Nc1cc(Cl)ccc1O` , what Potency is on record?
[reply] 2.31 µM (active)

[ask] For the compound `Cc1cccc(-c2nnc(-c3cccc4ccccc34)o2)c1` , what Potency is on record?
[reply] 5.17 µM (active)

[ask] For the compound `O=C1C(=Cc2cccc(F)c2)Cc2ccccc21` , what Potency is on record?
[reply] 13 µM (active)

----------
procedure_text: qHTS of Nrf2 Activators: Hit Validation in Primary Assay; note: nearly all actives have a fitted effect of over 70% in size; for activation: 0% is about no effect
cond: Nrf2/ARE reporter cell assay; activation; series mostly up to 46.1 µM
The campaign covered roughly 1,100 compounds. About 860 (78%) were called active. Roughly 19% stayed inconclusive and do not appear here. Calls follow the shape of the dose curve; as a rule, active = well fitted activation curve with a large enough effect; inconclusive = small, poorly fitted or top-dose-only effect; inactive = flat fitted curve, though single readings scatter. The set was probably picked from earlier hits. This is one part of the list.
Outcome field: choose from 1 (active), -1 (inactive)

[ask] Fill in: this test's call for `Cc1cccc(NC(=O)Nc2ccc(Br)cc2)n1` is ___
[reply] 1

[ask] Fill in: this test's call for `S=c1[nH]nc(COc2ccccc2)n1/N=C/C(Cl)=C/c1ccccc1` is ___
[reply] 1

[ask] Fill in: this test's call for `CC(=NNC(=O)CSc1nc2ccccc2o1)c1ccco1` is ___
[reply] 1

[ask] Fill in: this test's call for `CC(=O)c1cc2c(cc1NC(=O)c1ccco1)OCCO2` is ___
[reply] 1

[ask] Fill in: this test's call for `O=C(NC(=S)Nc1ccc(Br)cn1)c1cccs1` is ___
[reply] 1

[ask] Fill in: this test's call for O=C(/C=C\c1ccc2c(c1)OCO2)CC1(O)C(=O)Nc2ccccc21 (centres undefined) is ___
[reply] 1

[ask] Fill in: this test's call for `N/C(=N\OC(=O)c1cc(Cl)ccc1Cl)c1cccnc1` is ___
[reply] 1

[ask] Fill in: this test's call for `Cc1csc2c(=O)sc(NC(=O)c3ccc(F)cc3Cl)nc12` is ___
[reply] 1

[ask] Fill in: this test's call for `COc1cc(Cl)cc(/C=C/c2ccc3cccc(O)c3n2)c1OC` is ___
[reply] 1

[ask] Fill in: this test's call for `COc1cc(/C=C/c2ccc3cccc(O)c3n2)cc(OC)c1OC` is ___
[reply] -1

[ask] Fill in: this test's call for `O=C(Nc1cc(Cl)ccc1-n1cncn1)c1ccco1` is ___
[reply] 1

[ask] Fill in: this test's call for `CC(=O)Nc1cc2oc3ccccc3c2cc1[N+](=O)[O-]` is ___
[reply] 1

[ask] Fill in: this test's call for `O=[N+]([O-])c1ccccc1/C=N/Nc1nccnc1Cl` is ___
[reply] 1

[ask] Fill in: this test's call for `CC(=O)Nc1ccc(N=Nc2ccccc2)cc1[N+](=O)[O-]` is ___
[reply] 1

[ask] Fill in: this test's call for `O=C(Nc1ccccn1)Nc1ccccc1[N+](=O)[O-]` is ___
[reply] 1

[ask] Fill in: this test's call for `O=C(Nc1ccccn1)Nc1ccccc1Cl` is ___
[reply] 1

[ask] Fill in: this test's call for `CCc1nn2c(-c3ccco3)ccnc2c1-c1ccccc1` is ___
[reply] -1

[ask] Fill in: this test's call for `Cc1cccc(NC(=S)NC(=O)c2cccs2)n1` is ___
[reply] 1

[ask] Fill in: this test's call for `S=c1[nH]nc(-c2ccco2)n1/N=C/C(Cl)=C/c1ccccc1` is ___
[reply] 1

[ask] Fill in: this test's call for `Nc1ccc(S(=O)(=O)Nc2nccc(/C=C/c3cccc(Br)c3)n2)cc1` is ___
[reply] 1

[ask] Fill in: this test's call for COc1ccc([N+](=O)[O-])cc1C1NN=C(c2ccccc2O)S1 (centres undefined) is ___
[reply] 1

[ask] Fill in: this test's call for `CC(/C=N/n1c(-c2ccncc2)n[nH]c1=S)=C\c1ccco1` is ___
[reply] 1

[ask] Fill in: this test's call for `c1cc2c3c(cccc3c1)NN=N2` is ___
[reply] 1

[ask] Fill in: this test's call for `O=C1c2cccc3cccc(c23)C(=O)N1Cc1ccco1` is ___
[reply] 1

[ask] Fill in: this test's call for `O=C(NC(=S)Nc1cccc2cccnc12)c1cccs1` is ___
[reply] 1

[ask] Fill in: this test's call for `O=C(/C=C/Nc1ccc(F)c(Cl)c1)c1ccco1` is ___
[reply] 1

[ask] Fill in: this test's call for `Fc1cccc(Cl)c1/C=N/Nc1ccccn1` is ___
[reply] 1

[ask] Fill in: this test's call for `O=C(Cn1cnc2scc(-c3cccc([N+](=O)[O-])c3)c2c1=O)NCc1ccco1` is ___
[reply] 1

[ask] Fill in: this test's call for `Cc1ccccc1C(=O)Nc1nc2c(C)csc2c(=O)s1` is ___
[reply] 1

[ask] Fill in: this test's call for COc1cccc(/C=C2/CCC(CN(C)C)C2=O)c1 (centres undefined) is ___
[reply] 1

[ask] Fill in: this test's call for `NS(=O)(=O)c1ccc(Sc2nc3ccccc3s2)c([N+](=O)[O-])c1` is ___
[reply] 1

[ask] Fill in: this test's call for `CC(/C=N/NC(=O)Cc1cccn1C)=C\c1ccco1` is ___
[reply] 1

[ask] Fill in: this test's call for `N/C(=N\OC(=O)c1ccccc1Cl)c1ccncc1` is ___
[reply] 1

[ask] Fill in: this test's call for `CCOc1c(Br)cc(C(N)=O)cc1OCc1ccccc1` is ___
[reply] -1

[ask] Fill in: this test's call for `Clc1ccc(-c2ccnc(-n3cccc3)n2)s1` is ___
[reply] 1

[ask] Fill in: this test's call for `Cc1cccc2c(=O)n(C(=O)c3ccccc3)c(N)nc12` is ___
[reply] 1

[ask] Fill in: this test's call for `C/C(=N\NC(=S)Nc1cccc(C)c1)c1ccco1` is ___
[reply] 1

[ask] Fill in: this test's call for `N#C/C(=C\c1ccccc1[N+](=O)[O-])c1nc(C2CC2)cs1` is ___
[reply] 1

[ask] Fill in: this test's call for `S=c1[nH]nc(-c2ccncc2)n1/N=C/C=C/c1ccco1` is ___
[reply] 1

[ask] Fill in: this test's call for `C/C(=N\NC(=O)COc1ccccc1[N+](=O)[O-])c1cccs1` is ___
[reply] 1

[ask] Fill in: this test's call for `N/C(=N\OC(=O)c1ccco1)c1cccc(Br)c1` is ___
[reply] 1

[ask] Fill in: this test's call for `Nc1ccccc1N1C(=O)c2cccc3cccc(c23)C1=O` is ___
[reply] 1

[ask] Fill in: this test's call for `COc1ccc([N+](=O)[O-])cc1NC(=O)c1ccco1` is ___
[reply] 1

[ask] Fill in: this test's call for `Cc1nc(/N=C(\N)NC(=O)c2ccccc2)nc2ccccc12` is ___
[reply] 1

[ask] Fill in: this test's call for `S=C(NNc1ccc2ccccc2c1)NC1CCCCC1` is ___
[reply] 1

[ask] Fill in: this test's call for `O=[N+]([O-])c1ccccc1C=NNc1ccccc1` is ___
[reply] 1

[ask] Fill in: this test's call for `Cc1ccc(-c2cc(-c3cccc(F)c3)n[nH]2)c(O)c1` is ___
[reply] 1

[ask] Fill in: this test's call for `O=c1oc2ccccc2nc1/C=C(\O)c1ccc(Br)cc1` is ___
[reply] 1

[ask] Fill in: this test's call for `COc1cc(OC)cc(C(=O)O/N=C(\N)c2cccc(C)c2)c1` is ___
[reply] -1

Cited source: PubChem BioAssay AID651593
